system: HCC 2998; assay: NCI tumour cell line growth inhibition, 48 h
Activity calls are given as the source filed them. Cut-off read from the data, not from the text of the source: active = GI50 up to about 1.1 µM and inactive = higher. Square brackets hold non-standard residues; d marks the D form. Peptide text beside a SMILES is read from it. * marks the point of attachment. NMeV = CN[C@H](C(=O)O)C(C)C; X28 = COc1ccc(CN*)c(OC)c1; Octanoyl = CCCCCCCC(=O)*; dNMeA = CN[C@H](C)C(=O)O
Give one outcome, nothing more. List: active, inactive

{"compound": "CCCCCCCC(=O)N[C@H](C(=O)N[C@H](C(=O)N(C)[C@H](C(=O)N1CCC[C@H]1C(=O)N(C)[C@H](C)C(=O)NCc1ccc(OC)cc1OC)C(C)C)C(C)C)C(C)C (Octanoyl-VV[NMeV]P[dNMeA]-X28)", "group": "inactive"}

State the result this test recorded for COC(=O)/C(C#N)=C(\N)C(Cl)(Cl)Cl .
inactive

State the result this test recorded for COc1nc2nccc-2c2occn12 .
inactive

State the result this test recorded for O=C(O)CNCc1c2ccccc2[n+]([O-])c2ccccc12 .
inactive

State the result this test recorded for CCN(CC)/[N+]([O-])=N/OS(=O)(=O)N(C)C .
inactive

State the result this test recorded for OC1CC(O)O[C@H](c2ccccc2)C1 (some centres undefined) .
inactive

State the result this test recorded for COc1ccc2cc3[n+](cc2c1O)CCc1cc2c(cc1-3)OCO2 [BERBERRUBINE CHLORIDE] .
inactive

====

system: BT-549; assay: NCI tumour cell line growth inhibition, 48 h
Active and inactive are the calls of the source. No stated cut-off is given here; in the data, active = GI50 up to about 1.1 µM and inactive = higher.
The reader will find reported GI50 values listed item by item below.

Some compounds with recorded GI50:
{"compound": "CC(C)(C)OC(=O)NC(Cc1ccc(OC(C)(C)C)cc1)C(=O)N[C@H]1CC[C@H](C(=O)O)C1 (some centres not stated)", "GI50": "45 µM (inactive)"}
{"compound": "COc1ccc(-c2cc(-c3cc(C)cc(Br)c3O)no2)cc1", "GI50": "14.9 µM (inactive)"}

Value wanted: GI50 (BT-549) of entry CCN(CC)CCOCC1CCCN2CCCCC12 (configuration not stated)
> 100 µM (inactive)

Value wanted: GI50 (BT-549) of entry O=C1CCC(c2ccccc2)(c2ccccc2)CC1
83.2 µM (inactive)

Value wanted: GI50 (BT-549) of entry O=C1CCCNn2c(nc3ncccc3c2=O)N1
> 100 µM (inactive)

Value wanted: GI50 (BT-549) of entry O=C(c1cc(Cl)ccc1Cl)N1CCN(c2cccc(Cl)c2)CC1
8.61 µM (inactive)

Value wanted: GI50 (BT-549) of entry CCOC(=O)C(CO)c1nc2c([nH]c1=O)c(=O)n(C)c(=O)n2C (configuration not stated)
> 100 µM (inactive)

====

system: RXF 393; experiment: NCI tumour cell line growth inhibition, 48 h
Active and inactive are the calls of the source. Rule as the data show it: active = GI50 up to about 1.1 µM and inactive = higher.
measurement_type: GI50

Some compounds with recorded GI50:
{"compound": "CC(=O)O[C@H]1C[C@H]2[C@@H]([C@H](OC(C)=O)C[C@@H]3CC4(CC[C@@]32C)OOC2(CCCCC2)OO4)[C@@H]2CC[C@H]([C@H](C)CCC(N)=O)[C@@]12C", "GI50": "2.76 µM (inactive)"}
{"compound": "CCN(CC)CCOCC1CCCN2CCCCC12 (stereo unspecified)", "GI50": "> 100 µM (inactive)"}
{"compound": "COC(=O)C(Cc1cn(C(C)=O)c2ccccc12)P(=O)(OC)OC (stereo unspecified)", "GI50": "> 100 µM (inactive)"}
{"compound": "COc1ccc2ccc3oc(=O)c(C)cc3c2c1", "GI50": "> 100 µM (inactive)"}
{"compound": "CC1(C)CC(=O)C2=C(C1)OC1=C(C(=O)CC(C)(C)C1)C2CC(c1ccccc1)c1ccc(O)c(O)c1O (stereo unspecified)", "GI50": "> 10 µM (inactive)"}
{"compound": "CC(=O)NNc1nc(C)c(C(/C=C/c2cccc([N+](=O)[O-])c2)=N/NC(=S)NN)s1", "GI50": "> 100 µM (inactive)"}
{"compound": "O=C(C#Cc1ccccc1)Nc1ccccc1CC(c1c[nH]c2ccccc12)c1c[nH]c2ccccc12", "GI50": "3.02 µM (inactive)"}
{"compound": "O=C(c1cc(Cl)ccc1Cl)N1CCN(c2ccc(Cl)c(Cl)c2)CC1", "GI50": "15.4 µM (inactive)"}
{"compound": "O=c1cc[nH]c(=O)[nH]1", "GI50": "316 µM (inactive)"}
{"compound": "Cc1cccc2c1CC(Cc1ccccc1C(=O)O)C2=O (stereo unspecified)", "GI50": "> 100 µM (inactive)"}

For the next question, use this compound.
Given the entry CN1C2CC(=O)CC1[C@H](O)[C@@H]2O , report its measured GI50.
> 100 µM (inactive)

====

tested on: SNB-75; assay: NCI tumour cell line growth inhibition, 48 h
Active and inactive are the calls of the source. No stated cut-off is given here; in the data, active = GI50 up to about 1.1 µM and inactive = higher.
The reader will find reported GI50 values listed item by item below.

Given the entry COc1cc2c3c(c1OCc1ccccc1)NCCC3NCC2 (stereo not drawn) , report its measured GI50.
43.7 µM (inactive)

Given the entry O=C(C/C(=N/O)C(=O)NC1=C(Cl)C(=O)c2ccccc2C1=O)CC(c1ccccc1)c1c(O)c2ccccc2oc1=O (stereo not drawn) , report its measured GI50.
3.87 µM (inactive)

Given the entry CN(C)CCCn1c(Cc2ccccc2)nc2cc(C(F)(F)F)ccc21 , report its measured GI50.
52.8 µM (inactive)

Given the entry N=c1oc2c(O)c(O)ccc2cc1C(N)=O , report its measured GI50.
30.2 µM (inactive)

Given the entry CCCN1CN(C(C(=O)N[C@@H]2C(=O)N3C2SC(C)(C)C3C(=O)O)c2ccccc2)CSC1=S (stereo partly drawn) , report its measured GI50.
> 100 µM (inactive)

Given the entry O=C(CSCC(=O)N/N=C\c1ccc(F)cc1F)N/N=C\c1ccc(F)cc1F , report its measured GI50.
> 100 µM (inactive)

Given the entry Cc1ccc(C)c(NC(=O)/C(=N\N)C(c2cnc3ccc([N+](=O)[O-])cc3n2)[N+](=O)[O-])c1 (stereo not drawn) , report its measured GI50.
> 100 µM (inactive)

Given the entry O=C(O)CP(=O)(O)O , report its measured GI50.
> 100 µM (inactive)

====

The reader will find reported GI50 values listed item by item below.
system: SK-MEL-28; assay: NCI tumour cell line growth inhibition, 48 h
Active and inactive are the calls of the source. Cut-off read from the data, not from the text of the source: active = GI50 up to about 1.1 µM and inactive = higher.

{"molecule": "C=CC(C)(C)n1cc(C2=C(O)C(=O)C(c3cn(C(C)(C)C=C)c4ccccc34)=C(O)C2=O)c2ccccc21", "GI50": "7.33 µM (inactive)"}

Value wanted: GI50 (SK-MEL-28) of entry COC(=O)[C@H](COC(=O)/C=C/c1ccc(OC(C)=O)c(OC(C)=O)c1)NC(=O)/C=C/c1ccc(OC(C)=O)c(OC(C)=O)c1
30.5 µM (inactive)

Value wanted: GI50 (SK-MEL-28) of entry CC(C)C(C/C=C1\CC(CO)(COC(=O)C2CCCCC2)OC1=O)C(C)C (centres undefined)
16.6 µM (inactive)

Value wanted: GI50 (SK-MEL-28) of entry C=C(CN(C)C)C(=O)c1ccc(C)cc1C
6.1 µM (inactive)

====

test system: HCC 2998; assay: NCI tumour cell line growth inhibition, 48 h
Active and inactive are the calls of the source. No stated cut-off is given here; in the data, active = GI50 up to about 1.1 µM and inactive = higher.
measurement_type: GI50

Some molecules with recorded GI50:
{"molecule": "Cc1c2cc[n+](C)cc2c(C)c2c1[nH]c1ccc(Oc3ccccc3)cc12", "GI50": "2.61 µM (inactive)"}
{"molecule": "O=S1(=O)CS(=O)(=O)OCCCCCO1", "GI50": "> 100 µM (inactive)"}
{"molecule": "Cc1c(/C=N/NC(=O)c2cc(Br)cc(Br)c2O)c(=O)n(-c2ccccc2)n1C", "GI50": "> 100 µM (inactive)"}
{"molecule": "C[N+](C)(C)CC1CCCC1=O (stereo unspecified)", "GI50": "16 µM (inactive)"}
{"molecule": "O[C@]12CCCC[C@H]1CCC2", "GI50": "> 100 µM (inactive)"}

For the next question, use this molecule.
Value wanted: GI50 (HCC 2998) of entry COc1ccc(C2(c3ccc(OC)cc3)OC(=O)c3cccc4cccc2c34)cc1
3.14 µM (inactive)

====

The reader will find reported GI50 values listed item by item below.
test system: SNB-19; assay: NCI tumour cell line growth inhibition, 48 h
Activity calls are given as the source filed them. No stated cut-off is given here; in the data, active = GI50 up to about 1.1 µM and inactive = higher.

{"compound": "CC(C)C(CCOS(=O)(=O)O)CCC(C)[C@H]1[C@@H](O)C(O)C2[C@]3(O)C[C@@H](O)C4(O)C[C@@H](O)CC[C@]4(C)C3CC[C@@]21C (stereo partly drawn)", "assayed_system": "SNB-19", "GI50": "> 100 µM (inactive)"}

Value wanted: GI50 (SNB-19) of entry Cc1cn(C2CC(CCCO)C(CO)O2)c(=O)[nH]c1=O (stereo not drawn)
> 100 µM (inactive)

Value wanted: GI50 (SNB-19) of entry O=C(CCc1ccc(O)c(O)c1)c1ccc(O)c(O)c1O
34.4 µM (inactive)
